Data provenance is patent US20250248973A1.

TGT: UniProtKB P21554
ASSAY SUMMARY: hCB1 Gai cyclic AMP (cAMP) TR-FRET assay, antagonism of EC80 CP55940 with forskolin
MEASUREMENT CONDITIONS: hCB1 cells, 30 min pre-incubation
pIC50: −log10 of the molar value.
RECORDED ENDPOINT: pIC50

Recorded pIC50, per entry:
INPUT: Kindly state the measured pIC50 obtained for NS(=O)(=O)O[C@H]1C[C@@H](N/C(=N\S(=O)(=O)c2ccc(Cl)cc2)N2C[C@@H](c3ccccc3)C(c3ccc(Cl)cc3)=N2)C1 (single isomer, unassigned) [Compound 226] with UniProtKB P21554.
OUTPUT: < 6.30

INPUT: Kindly state the measured pIC50 obtained for NS(=O)(=O)[C@H]1C[C@@H](N/C(=N/S(=O)(=O)c2ccc(Cl)cc2)N2C[C@H](c3ccccc3)C(c3ccc(F)cc3)=N2)C1 (single isomer, unassigned) [Compound 129] with UniProtKB P21554.
OUTPUT: < 6.30

INPUT: Kindly state the measured pIC50 obtained for C[C@H](CS(N)(=O)=O)N/C(=N\S(=O)(=O)c1ccc(Cl)cc1)N1CC(c2ccccc2)C(c2ccc(Cl)cc2)=N1 (stereo in doubt) [Compound 3] with UniProtKB P21554.
OUTPUT: < 6.30

Shifting focus to the compound that follows.
INPUT: Kindly state the measured pIC50 obtained for NS(=O)(=O)[C@@H]1CC[C@@H](N/C(=N/S(=O)(=O)c2ccc(Cl)cc2)N2C[C@H](c3ccccc3)C(c3ccc(Cl)cc3)=N2)C1 (single isomer, unassigned) [Compound 141] with UniProtKB P21554.
OUTPUT: 6.30 to 7.00

---

Reported IC50 values are given for each entry in this list.
TGT: Human CB1 Receptor-1 (hCB1) (Homo sapiens (Human), UniProt P21554)
Sequence (P21554 whole entry): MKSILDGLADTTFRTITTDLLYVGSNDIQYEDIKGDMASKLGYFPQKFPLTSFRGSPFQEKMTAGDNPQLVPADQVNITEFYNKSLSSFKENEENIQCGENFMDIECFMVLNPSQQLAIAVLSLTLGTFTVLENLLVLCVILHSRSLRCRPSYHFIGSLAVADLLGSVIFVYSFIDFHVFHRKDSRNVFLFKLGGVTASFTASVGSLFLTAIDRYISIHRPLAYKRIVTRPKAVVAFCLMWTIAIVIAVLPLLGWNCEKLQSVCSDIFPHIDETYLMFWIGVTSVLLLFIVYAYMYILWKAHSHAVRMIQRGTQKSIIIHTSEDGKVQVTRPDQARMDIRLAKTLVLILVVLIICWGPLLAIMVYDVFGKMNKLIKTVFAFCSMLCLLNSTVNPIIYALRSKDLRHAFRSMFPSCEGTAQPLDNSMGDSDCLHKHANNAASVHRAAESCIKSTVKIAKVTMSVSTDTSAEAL
ASSAY SUMMARY: hCB1 Gai cyclic AMP (cAMP) TR-FRET assay, antagonism of EC80 CP55940 with forskolin
MEASUREMENT CONDITIONS: hCB1 cells, 30 min pre-incubation
Procedure: Example 3. Biochemical Methods Human CB1 Receptor-1 (hCB1) and Human CB1 Receptor-1b (hCBib) hCB1/hCB1 b Gai Cyclic AMP (cAMP) Assays: Cells were seeded in a 384-well plate at an appropriate density from frozen cells. […] The plate was then incubated at rt for 30 minutes before reading fluorescent emissions at 620 nm and 665 with excitation at 314 nm on FlexStation III (Molecular Devices). […]

INPUT: Any idea what IC50 was measured for C[C@H](CS(N)(=O)=O)N/C(=N\S(=O)(=O)c1ccc(C(F)(F)F)cc1)N1C[C@H](c2ccccc2)C(c2ccc(Cl)cc2)=N1 [Compound 23] ?
OUTPUT: 100 to 500 nM

INPUT: Any idea what IC50 was measured for C[C@@H](CN/C(=N\S(=O)(=O)c1ccc(F)cc1)N1C[C@H](c2ccccc2)C(c2ccc(F)cc2)=N1)S(N)(=O)=O [Compound 54] ?
OUTPUT: < 100 nM

New cases:
INPUT: Any idea what IC50 was measured for NS(=O)(=O)CCNC(=NS(=O)(=O)c1cccnc1)N1C[C@H](c2ccccc2)C(c2ccc(Cl)cc2)=N1 [Compound 65] ?
OUTPUT: < 100 nM

INPUT: Any idea what IC50 was measured for C[C@H](CS(N)(=O)=O)N/C(=N\S(=O)(=O)c1ccc(Cl)cc1)N1C[C@H](c2ccccc2)C(c2ccc(F)cc2)=N1 [Compound 57] ?
OUTPUT: > 500 nM

INPUT: Any idea what IC50 was measured for NS(=O)(=O)O[C@H]1C[C@@H](N/C(=N\S(=O)(=O)c2ccc(C(F)(F)F)cc2)N2C[C@@H](c3ccccc3)C(c3ccc(Cl)cc3)=N2)C1 [Compound 228] ?
OUTPUT: > 500 nM

INPUT: Any idea what IC50 was measured for NS(=O)(=O)CCNC(=NS(=O)(=O)c1ccccc1Cl)N1C[C@H](c2ccccc2)C(c2ccc(Cl)cc2)=N1 [Compound 29] ?
OUTPUT: < 100 nM
